Tested on: Rat2 fibroblasts stably transformed with v-Src/Hu c-Src fusion gene
EXPERIMENT_NOTES: Anchorage independent Src-transformed fibroblast proliferation assay
Format: cell-based, rat
RECORDED_CONDITIONS: Rattus norvegicus, Rat2, Table 1; at 10 μM; read-out: Src cells % inh at 10 μM
MEASURE: inhibition at 10 µM (%)
Field format: number, assumed %, no unit text.

Output inhibition at 10 µM of N#Cc1cnc2ccsc2c1Sc1ccc(Cl)cc1Cl [Example 12]
23

Output inhibition at 10 µM of COc1cc(Nc2c(C#N)cnc3sc(C)cc23)c(Cl)cc1Cl [Example 8]
33

Output inhibition at 10 µM of N#Cc1cnc2ccsc2c1NCc1ccc(Cl)cc1Cl [Example 13]
34

Output inhibition at 10 µM of COc1cc(Nc2c(C#N)cnc3sc(I)cc23)c(Cl)cc1Cl [Example 7]
31
